Listed substances paired with reported pKd
# experimental.system: GST-pro-dom-NGF (Homo sapiens, UniProt P01138, A35V)
# Construct: previously described GST-NGF-pro-domain fusion protein (Nykjaer et al., Nature 2004)
# Sequence (P01138 19-121 A35V): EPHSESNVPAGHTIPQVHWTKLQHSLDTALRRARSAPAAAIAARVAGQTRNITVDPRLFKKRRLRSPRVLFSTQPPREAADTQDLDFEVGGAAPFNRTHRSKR
# assay.method.text: SPR binding of GST-pro-dom-NGF to immobilized sortilin site-directed mutants
# assay.context: GST-pro-dom-NGF at 10-50 nM; 1:1 binding model
Where no end group is shown, it is not given here.
In plain terms, pKd is the concentration in mol/L turned into minus its base-10 logarithm.

Recorded pKd of R166A: single residue mutant of his-tagged sortilin luminal domain; SEQ ID NO 53 (RGGRIFASSDFAKNF; not fully specified) , please.
8.36

// next record F170A: single residue mutant of his-tagged sortilin luminal domain; SEQ ID NO 54 (RGGRIFRSSDAAKNF; not fully specified)
8.25

Can you check F174A: single residue mutant of his-tagged sortilin luminal domain; SEQ ID NO 56 (RGGRIFRSSDFAKNA; not fully specified) next?
8.37

Continue with R160A: single residue mutant of his-tagged sortilin luminal domain, control; SEQ ID NO 50 (AGGRIFRSSDFAKNF; not fully specified)
8.72

Next entry: F165A: single residue mutant of his-tagged sortilin luminal domain; SEQ ID NO 52 (RGGRIARSSDFAKNF; not fully specified)
8.41

Same for R163A: single residue mutant of his-tagged sortilin luminal domain; SEQ ID NO 51 (RGGAIFRSSDFAKNF; not fully specified)
8.57

Then this substance: K172A: single residue mutant of his-tagged sortilin luminal domain; SEQ ID NO 55 (RGGRIFRSSDFAANF; not fully specified)
8.41
